B1: ANKRD44 (parent)
chain: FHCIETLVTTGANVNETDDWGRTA

Variants of: B1
Experiment Summary: protein stability index of a GFP-peptide fusion (GPS, HEK-293T) (PSI 1-6); higher = more stable;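 further: lentivirally expressed fusions sorted by FACS into six bins by GFP to DsRed ratio, PSI derived from sequencing read proportions per bin multiplied by bin number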
Experimental Parameters: c terminus: a fixed tail appended
Endpoint Label: protein stability index

- T17S: 2.61
- G11N: 2
- W20A: 2.99
- A24G: 2.05
- V8D: 3.76
- V8C: 2.03
- D19R: 1.66
- T17E: 2.84
- T6G: 1.73
- V14Q: 2.11
- R22A: 2.64
- T17C: 2.14
- T23Q: 2.24
- E5H: 2.76
- N15G: 1.85
- L7V: 2.19
- T17G: 1.86
- H2I: 1.62
- F1Y: 2.07
- F1W: 3.18
- N15H: 2.17
- V14E: 3.04
